# log10(IC50) listing for each entry below
Target: mutant IDH1 (R132C) HT1080 cells (Homo sapiens, UniProt O75874, R132C)
Sequence (O75874 2-414 R132C limits assumed): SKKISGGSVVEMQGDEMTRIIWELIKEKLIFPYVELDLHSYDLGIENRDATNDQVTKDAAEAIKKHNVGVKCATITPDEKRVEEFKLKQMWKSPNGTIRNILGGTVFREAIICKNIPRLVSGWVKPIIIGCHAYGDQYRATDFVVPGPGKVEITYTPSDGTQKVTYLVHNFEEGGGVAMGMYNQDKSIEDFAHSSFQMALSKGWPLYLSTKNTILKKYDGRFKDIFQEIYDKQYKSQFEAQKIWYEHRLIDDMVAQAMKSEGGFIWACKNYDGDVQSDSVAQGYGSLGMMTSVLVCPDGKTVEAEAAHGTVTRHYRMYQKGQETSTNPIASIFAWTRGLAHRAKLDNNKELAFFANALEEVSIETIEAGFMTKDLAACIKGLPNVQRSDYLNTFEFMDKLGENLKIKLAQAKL
Assay: Cellular 2-HG assay using mutant IDH1 (R132C) HT1080 cells
Conditions: 48 h treatment, 0.003 to 3 μM, 2-HG in cell culture media
Endpoint name: log10(IC50) (log10 of the value in nM)

INSERT INTO assay_data (line_notation, experimental_system, measured) VALUES
  ('Cc1nc(N[C@@H](C)c2ccc(Oc3ccccc3)cc2)nc(N2C(=O)OC[C@@H]2[C@H](C)F)n1', 'mutant IDH1 (R132C) HT1080 cells (Homo sapiens, UniProt O75874, R132C)', 1.56),
  ('CC[C@H]1COC(=O)N1c1nc(C)nc(N[C@@H](C)c2cc3cc(Cl)c(OC)cc3[nH]c2=O)n1', 'mutant IDH1 (R132C) HT1080 cells (Homo sapiens, UniProt O75874, R132C)', 2.75),
  ('Cc1nc(N[C@@H](C)c2cc3cc(Cl)ccc3[nH]c2=O)nc(N2C(=O)OC[C@@H]2[C@H](C)F)n1', 'mutant IDH1 (R132C) HT1080 cells (Homo sapiens, UniProt O75874, R132C)', 2.43),
  ('CC[C@H]1COC(=O)N1c1nc(C)nc(N[C@@H](C)c2cc3cc(Cl)c(OC(C)C)cc3[nH]c2=O)n1', 'mutant IDH1 (R132C) HT1080 cells (Homo sapiens, UniProt O75874, R132C)', 1.97),
  ('CC[C@H]1COC(=O)N1c1nc(C)nc(N[C@@H](C)c2ccc(Oc3ccccc3)cc2)n1', 'mutant IDH1 (R132C) HT1080 cells (Homo sapiens, UniProt O75874, R132C)', 2.23),
  ('CC[C@H]1COC(=O)N1c1nc(C)nc(N[C@@H](C)c2cn(-c3ccc(Cl)cc3)cn2)n1', 'mutant IDH1 (R132C) HT1080 cells (Homo sapiens, UniProt O75874, R132C)', 2.62),
  ('CC[C@H]1COC(=O)N1c1nc(C)nc(N[C@@H](C)c2cc3cc(Cl)ccc3[nH]c2=O)n1', 'mutant IDH1 (R132C) HT1080 cells (Homo sapiens, UniProt O75874, R132C)', 2.80);

* * *

Below is a list of entries, each paired with its recorded IC50 value.
Target: IDH1 mutant (R132H) (Homo sapiens, UniProt O75874, R132H)
Sequence (O75874 whole entry R132H): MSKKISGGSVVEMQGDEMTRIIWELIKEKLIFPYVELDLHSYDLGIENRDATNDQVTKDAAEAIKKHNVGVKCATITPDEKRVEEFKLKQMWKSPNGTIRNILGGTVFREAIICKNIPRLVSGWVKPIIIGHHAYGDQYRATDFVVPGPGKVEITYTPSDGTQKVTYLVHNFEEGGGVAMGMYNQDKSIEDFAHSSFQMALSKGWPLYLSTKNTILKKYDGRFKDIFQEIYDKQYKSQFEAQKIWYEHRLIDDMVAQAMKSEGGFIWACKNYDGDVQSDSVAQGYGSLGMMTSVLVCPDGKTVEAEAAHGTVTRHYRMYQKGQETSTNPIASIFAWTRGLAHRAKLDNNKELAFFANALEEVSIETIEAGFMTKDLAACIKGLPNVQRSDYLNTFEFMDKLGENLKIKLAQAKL
Assay: Mutant IDH1-R132H Fluorescence Assay (Resazurin based)
Details: 10 nM IDH1 R132H, 4 mM α-ketoglutarate, NADPH, 1.5 h at room temperature
Endpoint name: IC50 (µM)

INSERT INTO measurements (line_notation, inequality_sign, measured) VALUES
  ('CC(C)[C@H]1COC(=O)N1c1ncnc(N[C@H](C)c2cc3cc(Cl)ccc3[nH]c2=O)n1', '>', 30),
  ('CC[C@H](Nc1ncnc(N2C(=O)OC[C@@H]2C(C)C)n1)c1ccc(Oc2ccccc2)cc1', '=', 0.868),
  ('CC[C@H]1COC(=O)N1c1nc(C)nc(N[C@@H](C)c2cc3ccccc3[nH]c2=O)n1', '=', 1.79),
  ('CC(C)[C@H]1COC(=O)N1c1ncnc(N[C@@H](C)c2ccccn2)n1', '>', 30),
  ('CC[C@H]1COC(=O)N1c1nc(C)nc(N[C@@H](C)c2ccc(Oc3ccc(Cl)cc3)nc2OC)n1', '=', 8.82),
  ('CC(C)[C@H]1COC(=O)N1c1ncnc(N[C@H](C)c2ccc(Cl)c(Cl)c2)n1', '>', 30),
  ('CC[C@H]1COC(=O)N1c1nc(C)nc(N[C@@H](C)c2cc3cc(Cl)c(OC)cc3[nH]c2=O)n1', '=', 0.084),
  ('CC[C@H]1COC(=O)N1c1ncnc(N[C@@H](C)c2ccc(Oc3ccccc3)cc2)n1', '=', 0.492);

* * *

Molecular target: IDH1 mutant (R132H) (Homo sapiens, UniProt O75874, R132H)
Construct: purchased BPS Bioscience 71099-2
Assay: Mutant IDH1-R132H Fluorescence Assay (Resazurin based)
Format: biochemical
Conditions: 10 nM IDH1 R132H, 4 mM α-ketoglutarate, NADPH, 1.5 h at room temperature
pIC50: −log10 of the molar value.
Endpoint name: pIC50

INSERT INTO results (compound, experimental_system, endpoint_name, inequality_sign, measured) VALUES
  ('CC[C@H]1COC(=O)N1c1nc(C)nc(N[C@@H](C)c2cc3cc(Cl)ccc3[nH]c2=O)n1 [Compound 1.38]', 'IDH1 mutant (R132H) (Homo sapiens, UniProt O75874, R132H)', 'pIC50', '=', 6.84),
  ('CC[C@H]1COC(=O)N1c1nc(C)nc(N[C@@H](C)c2ccc3c(-c4ccccc4)cn(C)c3c2)n1 [Compound 1.101]', 'IDH1 mutant (R132H) (Homo sapiens, UniProt O75874, R132H)', 'pIC50', '=', 4.87),
  ('CC[C@H]1COC(=O)N1c1nc(C)nc(N[C@@H](C)c2ccc(C(=O)Nc3ccccc3)cc2)n1 [Compound 1.103]', 'IDH1 mutant (R132H) (Homo sapiens, UniProt O75874, R132H)', 'pIC50', '<', 4.52),
  ('CC[C@H]1COC(=O)N1c1nc(C)nc(N[C@@H](C)c2ccc(-c3ccc(F)c(C)c3)cn2)n1 [Compound 1.68]', 'IDH1 mutant (R132H) (Homo sapiens, UniProt O75874, R132H)', 'pIC50', '=', 5.80),
  ('CC(C)[C@H]1COC(=O)N1c1ncnc(N[C@@H](C)c2ccc(N3CCN(C)CC3)cn2)n1 [Compound 1.24]', 'IDH1 mutant (R132H) (Homo sapiens, UniProt O75874, R132H)', 'pIC50', '<', 4.52),
  ('CC[C@H]1COC(=O)N1c1nc(C)nc(N[C@H](C)c2ccc(Oc3ccc(F)cc3Br)cc2)n1 [Compound 1.79]', 'IDH1 mutant (R132H) (Homo sapiens, UniProt O75874, R132H)', 'pIC50', '=', 5.57),
  ('CC[C@H]1COC(=O)N1c1nc(C)nc(N[C@@H](C)c2ccc(Oc3cccnc3)cc2)n1 [Compound 1.74]', 'IDH1 mutant (R132H) (Homo sapiens, UniProt O75874, R132H)', 'pIC50', '<', 4.52);

* * *

Target: IDH1 mutant (R132H) (Homo sapiens, UniProt O75874, R132H)
Assay: Mutant IDH1-R132H Fluorescence Assay (Resazurin based)
Conditions: 10 nM IDH1 R132H, 4 mM α-ketoglutarate, NADPH, 1.5 h at room temperature
Some molecules, each annotated with its measured IC50.
Endpoint name: IC50 (µM)

INSERT INTO results (molecule, u, inequality_sign, measured) VALUES
  ('CC[C@H]1COC(=O)N1c1nc(C)nc(N[C@@H](C)c2ccc(OCc3ccccc3)cc2)n1 [Compound 1.73]', 'µM', '=', 15.4),
  ('Cc1cc(-c2cnc([C@H](C)Nc3ncnc(N4C(=O)OC[C@@H]4C(C)C)n3)nc2)ccc1F [Compound 1.1]', 'µM', '=', 2.77),
  ('Cc1nc(N[C@@H](C)c2ccc(Oc3ccccc3)cc2)nc(N2C(=O)OCC2(C)C)n1 [Compound 1.110]', 'µM', '=', 2.02),
  ('CC(C)[C@H]1COC(=O)N1c1ncnc(N[C@H](C)c2ccc(N3CCN(C)CC3)cn2)n1 [Compound 1.25]', 'µM', '>', 30),
  ('C[C@@H](Nc1ncnc(N2CCOC2=O)n1)c1ccc(Oc2ccccc2)cc1 [Compound 1.20]', 'µM', '>', 30),
  ('CC(C)[C@H]1COC(=O)N1c1ncnc(NCc2ccc(Oc3ccccc3)cc2)n1 [Compound 1.28]', 'µM', '=', 4.52),
  ('CC[C@H]1COC(=O)N1c1nc(C)nc(N[C@H](C)c2ccc(Sc3ccc(F)cc3)cc2)n1 [Compound 1.91]', 'µM', '>', 30),
  ('CC[C@H]1COC(=O)N1c1nc(C)nc(N[C@@H](C)c2ccc3c(ccn3-c3ccccc3)c2)n1 [Compound 1.90]', 'µM', '=', 1.54);

* * *

Target: IDH1 mutant (R132H) (Homo sapiens, UniProt O75874, R132H)
Construct: purchased BPS Bioscience 71099-2
Assay: Mutant IDH1-R132H Fluorescence Assay (Resazurin based)
Format: biochemical
Conditions: 10 nM IDH1 R132H, 4 mM α-ketoglutarate, NADPH, 1.5 h at room temperature
The compounds listed here are annotated with their IC50.
Endpoint name: IC50 (nM)

INSERT INTO assay_data (compound, inequality_sign, measured) VALUES
  ('CC[C@H]1COC(=O)N1c1nc(C)nc(N[C@@H](C)c2cc3cc(OC)ccc3[nH]c2=O)n1', '=', 1250),
  ('Cc1nc(N[C@H](C)c2cc3cc(Cl)ccc3[nH]c2=O)nc(N2C(=O)OC[C@@H]2[C@H](C)F)n1', '>', 30000),
  ('CC(C)[C@H]1COC(=O)N1c1ncnc(N[C@@H](C)c2ccc(Oc3ccccc3)cc2)n1', '=', 642),
  ('CC[C@H]1COC(=O)N1c1nc(C)nc(NC(C)c2cn(-c3ccc(Cl)cc3)cn2)n1 (single isomer, unassigned)', '>', 22900),
  ('CC[C@H]1COC(=O)N1c1nc(C)nc(N[C@@H](C)c2ccc(Oc3ccccc3)c(C)c2)n1', '=', 277),
  ('CC[C@H]1COC(=O)N1c1nc(C)nc(N[C@H](C)c2cc3cc(OC)ccc3[nH]c2=O)n1', '>', 30000),
  ('CC[C@H]1COC(=O)N1c1nc(C)nc(N[C@@H](C)c2ccc(Oc3ccc(Cl)cc3)c(C)n2)n1', '=', 3830);
